As shown below, each of these compounds has a reported growth inhibition value.
method-summary: NCI Yeast Anticancer Drug Screen. Data for the cln2 rad14 strain (AID 165);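 note: 0% = growth equal to vehicle treated cultures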
condition-set: S. cerevisiae cln2 rad14 strain, stronger effect = higher value; at 50.0 µM unless noted
The panel holds about 79,000 compounds, 15% with a hit somewhere; the sample as a whole holds those more often. Active and inactive are the calls of the source. Cut-off read from the data, not from the text of the source: active = growth inhibition above about 70%; inactive = the rest.
property-measured: growth inhibition

> print(dat)
                                    compound  property.measured             result
 1                  NC(=O)C1(N2CCCCC2)CCNCC1  growth inhibition    6.9% (inactive)
 2  CC1OCC(O)C(C(O)C(=O)CN(Cc2ccccc2)Cc2ccccc2)O1 (centres undefined)  growth inhibition   8.55% (inactive)
 3                Nc1ccc(NC(=O)Nc2ccccc2)cc1  growth inhibition  -32.4% (inactive)
 4  CCOC(=O)c1c(-c2ccc([N+](=O)[O-])cc2)cn(-c2ccc(OC)cc2)c1C  growth inhibition   4.35% (inactive)
 5  Cc1ccc(C(=O)CC2=Nc3nnc(CCCCCCCc4nnc5n4C(=O)C(CC(=O)c4ccc(C)cc4)=N5)n3C2=O)cc1  growth inhibition    -22% (inactive)
 6  CC(=O)CCOC(=O)c1cc([N+](=O)[O-])cc([N+](=O)[O-])c1  growth inhibition    2.6% (inactive)
 7  CCOC(=O)/C=C1\SC(C)(C)C1NC(=O)OCc1ccccc1 (centres undefined)  growth inhibition  -18.1% (inactive)
 8  CC(=O)Oc1cc(S(=O)(=O)Nc2n[nH]c(N)n2)c(S)cc1Cl  growth inhibition   11.7% (inactive)
 9                 O=C(O)C1Oc2cc3ccccc3cc2O1  growth inhibition   20.3% (inactive)
10         CC(=O)OCC(C)O (centres undefined)  growth inhibition   -0.3% (inactive)
11  O=C(OCc1ccccc1)C1CCN1C(c1ccccc1)c1ccccc1 (centres undefined)  growth inhibition  -25.6% (inactive)
12  CS(=O)(=O)OCC1OC(n2ncc(=O)[nH]c2=O)C(O)C1O (centres undefined)  growth inhibition  -2.45% (inactive)
13  [O-][N+](=Nc1ccc2c(c1)Cc1ccccc1-2)c1ccc2c(c1)Cc1ccccc1-2  growth inhibition  -19.1% (inactive)
14              C=CCN(CC=C)C(=O)Nc1cccc(C)c1  growth inhibition  -3.15% (inactive)
15  O=C(CCCC(=O)N/N=C/c1ccccc1O)N/N=C\c1ccccc1O  growth inhibition   3.35% (inactive)
16    O=C(CC(=O)c1cc(Cl)ccc1O)c1ccc2ccccc2n1  growth inhibition  -21.8% (inactive)
17  Cc1cc(C)c2c(=O)n(-c3ccccc3C)c(=S)n(-c3ccccc3C)c2n1  growth inhibition   1.95% (inactive)
18  O=C(N(O)c1ccccc1Cl)C(O)(c1ccccc1)c1ccccc1  growth inhibition     37% (inactive)
19                CC(=O)Oc1ccc(Cc2ccccc2)cc1  growth inhibition  -49.2% (inactive)
20             O=C1N(Cc2ccccc2)CCN1Cc1ccccc1  growth inhibition   20.2% (inactive)
21                          NNC(=O)Cc1cccnc1  growth inhibition     -8% (inactive)
22  O=C1C=C(c2ccccc2)C(c2ccccc2)C(c2ccccc2)C1 (centres undefined)  growth inhibition  -5.35% (inactive)
23  CCOP(=O)(OCC)/C(=C\n1c(=S)[nH]c2cc(C)ccc21)C(=O)OC  growth inhibition   -4.4% (inactive)
24              CCCCCCCCCCCCCCCCCCCCCCCCCCBr  growth inhibition  -9.95% (inactive)
